# Lookup of reported pKd keyed by entry
- assay_target: T1, CDT1^ΔN (N-terminally truncated CDT1^158-546) (human, UniProt Q9H211 158-546)
- T1 chain: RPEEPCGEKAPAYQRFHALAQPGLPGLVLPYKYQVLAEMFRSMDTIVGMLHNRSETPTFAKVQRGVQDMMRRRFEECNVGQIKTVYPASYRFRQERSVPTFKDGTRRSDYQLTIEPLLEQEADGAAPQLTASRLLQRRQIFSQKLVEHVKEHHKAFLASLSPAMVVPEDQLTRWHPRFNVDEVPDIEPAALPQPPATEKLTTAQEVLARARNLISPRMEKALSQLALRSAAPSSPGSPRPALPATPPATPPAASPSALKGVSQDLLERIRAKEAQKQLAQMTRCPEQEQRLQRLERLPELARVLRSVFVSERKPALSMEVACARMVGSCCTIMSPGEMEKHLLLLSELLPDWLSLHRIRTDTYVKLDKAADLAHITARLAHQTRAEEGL
- assay_procedure: SPR
pKd: −log10 of the molar value.

{"binder": "Gem^76–140 (peptide, UniProt O75496 76-140, looked up, geminin, human, UniProt O75496, residues 76-140; Made on Rink amide resin; source: synthetic peptide) peptide: Ac-KNLGGVTQESFDLMIKENPSSQYWKEVAEKRRKALYEALKENEKLHKEIEQKDNEIARLKKENKE-NH2", "pKd": 7.96}
{"binder": "Gem^76–135 (peptide, UniProt O75496 76-135, looked up, Made on Rink amide resin; source: synthetic peptide) peptide: Ac-KNLGGVTQESFDLMIKENPSSQYWKEVAEKRRKALYEALKENEKLHKEIEQKDNEIARLK-NH2", "pKd": 8.15}

# credit: paper PMC12695944
